Biological target: EGFR L858R/T790M/C797S (BaF3-LTC cells) (Homo sapiens, UniProt P00533, C797S/L858R/T790M)
Construct: expressed in transfected cells; host or cells: BaF3
Sequence (P00533 25-1210 T790M/C797S/L858R): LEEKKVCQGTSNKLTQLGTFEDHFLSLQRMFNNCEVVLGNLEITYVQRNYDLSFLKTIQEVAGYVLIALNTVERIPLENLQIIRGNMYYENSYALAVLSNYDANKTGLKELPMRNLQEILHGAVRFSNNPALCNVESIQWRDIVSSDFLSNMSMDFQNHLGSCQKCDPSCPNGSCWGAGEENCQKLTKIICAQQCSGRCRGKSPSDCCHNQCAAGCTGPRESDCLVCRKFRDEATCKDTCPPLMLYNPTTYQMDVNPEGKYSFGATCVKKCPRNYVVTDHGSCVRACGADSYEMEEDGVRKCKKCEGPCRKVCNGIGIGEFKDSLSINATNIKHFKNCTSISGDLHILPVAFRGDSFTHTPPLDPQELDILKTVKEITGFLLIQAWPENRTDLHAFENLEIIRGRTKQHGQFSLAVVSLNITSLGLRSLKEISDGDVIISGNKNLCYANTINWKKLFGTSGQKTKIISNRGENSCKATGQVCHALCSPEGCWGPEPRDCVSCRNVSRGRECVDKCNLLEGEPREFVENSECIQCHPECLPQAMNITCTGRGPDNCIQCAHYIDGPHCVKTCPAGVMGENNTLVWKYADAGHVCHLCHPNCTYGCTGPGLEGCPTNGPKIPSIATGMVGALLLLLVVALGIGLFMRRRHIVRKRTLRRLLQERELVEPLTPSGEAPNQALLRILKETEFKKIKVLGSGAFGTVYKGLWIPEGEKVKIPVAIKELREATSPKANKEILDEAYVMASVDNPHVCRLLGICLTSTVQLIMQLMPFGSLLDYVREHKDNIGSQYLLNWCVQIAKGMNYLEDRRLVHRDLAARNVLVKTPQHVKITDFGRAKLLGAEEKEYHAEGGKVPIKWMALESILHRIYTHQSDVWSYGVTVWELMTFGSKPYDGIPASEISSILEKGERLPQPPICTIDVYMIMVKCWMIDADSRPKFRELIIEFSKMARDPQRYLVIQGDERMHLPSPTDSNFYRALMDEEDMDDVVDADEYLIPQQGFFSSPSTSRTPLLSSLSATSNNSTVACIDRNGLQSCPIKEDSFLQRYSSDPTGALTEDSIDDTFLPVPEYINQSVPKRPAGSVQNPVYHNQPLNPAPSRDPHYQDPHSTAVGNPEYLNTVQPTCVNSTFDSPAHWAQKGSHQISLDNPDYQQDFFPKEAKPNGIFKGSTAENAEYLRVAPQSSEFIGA
Experiment: EGFR degradation HTRF assay, BaF3-LTC cells
Format: cell-based
Conditions: read-out: DC50(nM) BaF3-LTC; BaF3-LTC cells; EGFR degradation, IC50 (DC50) from curve fit
Recorded DC50 for the following compounds
Reply with the number, then its unit.

Solved cases (4 shown):
- CCc1ccc2c(P(C)(C)=O)c(Nc3nc(Nc4cc(CC)c(N5CCC(N6CCN(C(=O)C7CN(c8cccc9c8oc(=O)n9C8CCC(=O)NC8=O)C7)CC6)CC5)cc4OC)ncc3Br)ccc2n1 (centres unmarked): 3.89 nM
- CCOc1cc(N2CCC(N3CCN(CCCc4cc(F)cc5c4oc(=O)n5C4CCC(=O)NC4=O)CC3)CC2)c(CC)cc1Nc1ncc(Br)c(Nc2ccc3nc(CC)ncc3c2P(C)(C)=O)n1 (centres unmarked) [Example 564]: 7.34 nM
- CCc1ncc2c(P(C)(C)=O)c(Nc3nc(Nc4cc(CC)c(N5CCC(N6CCN(C(=O)Cc7ccc8c(c7)oc(=O)n8C7CCC(=O)NC7=O)CC6)CC5)cc4OC)ncc3Br)ccc2n1 (centres unmarked): 6.2 nM
- CCOc1cc(N2CCC(N3CCN(CCC4CCN(c5ccc6c(oc(=O)n6C6CCC(=O)NC6=O)c5F)CC4)CC3)CC2)c(CC)cc1Nc1ncc(Br)c(Nc2ccc3nc(CC)ncc3c2P(C)(C)=O)n1 (centres unmarked): 7.68 nM

Problem: For the compound CCc1cnc2c(P(C)(C)=O)c(Nc3nc(Nc4cc(CC)c(N5CCC(N6CCN(CCc7ccc8c(c7)oc(=O)n8C7CCC(=O)NC7=O)CC6)CC5)cc4OC)ncc3Br)ccc2n1 (centres unmarked) , what DC50 is on record?
Result: 3.63 nM

====

Target: EGFR L858R/C797S (BaF3 LC cells) (Homo sapiens, UniProt P00533, C797S/L858R)
Construct: expressed in transfected cells; host or cells: BaF3
Sequence (P00533 25-1210 C797S/L858R): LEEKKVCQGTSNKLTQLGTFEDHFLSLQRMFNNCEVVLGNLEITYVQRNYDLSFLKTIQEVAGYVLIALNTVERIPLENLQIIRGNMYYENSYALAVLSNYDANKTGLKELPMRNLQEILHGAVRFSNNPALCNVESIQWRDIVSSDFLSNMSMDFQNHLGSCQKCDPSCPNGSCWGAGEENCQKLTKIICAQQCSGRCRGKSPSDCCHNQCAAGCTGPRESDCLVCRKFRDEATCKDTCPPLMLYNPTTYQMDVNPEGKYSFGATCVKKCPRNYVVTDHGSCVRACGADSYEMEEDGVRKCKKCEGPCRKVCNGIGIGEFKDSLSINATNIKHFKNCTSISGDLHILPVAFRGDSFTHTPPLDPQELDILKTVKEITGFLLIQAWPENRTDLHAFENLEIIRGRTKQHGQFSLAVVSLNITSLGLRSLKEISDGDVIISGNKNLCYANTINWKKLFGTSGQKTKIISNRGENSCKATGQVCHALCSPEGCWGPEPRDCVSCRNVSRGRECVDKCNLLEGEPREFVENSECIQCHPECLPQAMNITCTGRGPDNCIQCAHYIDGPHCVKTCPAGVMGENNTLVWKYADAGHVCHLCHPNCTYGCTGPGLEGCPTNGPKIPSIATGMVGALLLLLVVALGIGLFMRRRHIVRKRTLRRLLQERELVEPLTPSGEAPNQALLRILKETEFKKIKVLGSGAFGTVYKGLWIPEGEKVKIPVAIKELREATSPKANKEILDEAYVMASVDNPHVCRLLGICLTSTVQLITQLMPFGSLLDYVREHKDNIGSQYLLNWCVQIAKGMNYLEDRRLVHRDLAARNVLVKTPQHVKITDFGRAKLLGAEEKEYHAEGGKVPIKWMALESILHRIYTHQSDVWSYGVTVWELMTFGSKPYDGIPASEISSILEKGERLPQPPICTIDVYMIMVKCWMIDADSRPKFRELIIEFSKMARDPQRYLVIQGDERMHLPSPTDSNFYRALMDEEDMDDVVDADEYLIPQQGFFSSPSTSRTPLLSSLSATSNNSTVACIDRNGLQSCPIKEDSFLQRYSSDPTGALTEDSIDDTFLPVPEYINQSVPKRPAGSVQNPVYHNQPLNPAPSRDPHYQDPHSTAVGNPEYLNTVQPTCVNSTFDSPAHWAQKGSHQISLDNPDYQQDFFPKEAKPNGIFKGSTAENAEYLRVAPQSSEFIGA
Assay: EGFR degradation HTRF assay, BaF3 LC cells
Type: cell-based
Details: BaF3 LC, 16h treatment, maximum percentage of degradation; read-out: BaF3 LC Dmax (%)
Assay Readout: Dmax (%)
Entry rule: numbers only, all in %.

* CCOc1cc(N2CCC(N3CCN(CCc4ccc(C)c5c4oc(=O)n5C4CCC(=O)NC4=O)CC3)CC2)c(CC)cc1Nc1ncc(Br)c(Nc2ccc3nc(CC)ccc3c2P(C)(C)=O)n1 (centres unmarked) [Example 470] | 86.6

Problem: For the compound CCc1cc(Nc2ncc(Br)c(Nc3ccc4nc(NC(=O)C5CC5)ccc4c3P(C)(C)=O)n2)c(OC)cc1N1CCC(N2CCN(C(=O)[C@@H]3CCN(c4cc(F)c([C@H]5CCC(=O)NC5=O)c(F)c4)C3)CC2)CC1 [Example 587] , what Dmax is on record?
Result: 87.8

Problem: For the compound CCc1cc(Nc2ncc(Br)c(Nc3ccc4nc(C)ccc4c3P(C)(C)=O)n2)c(OC)cc1N1CCC(N2CCN(CCc3ccc4c(c3)oc(=O)n4C3CCC(=O)NC3=O)CC2)CC1 (centres unmarked) [Example 490] , what Dmax is on record?
Result: 95.7

Problem: For the compound CCOc1cc(N2CCC(N3CCN(CC4CN(c5cc(F)cc6c5oc(=O)n6C5CCC(=O)NC5=O)C4)CC3)CC2)c(CC)cc1Nc1ncc(Br)c(Nc2ccc3nc(CC)ccc3c2P(C)(C)=O)n1 (centres unmarked) [Example 479] , what Dmax is on record?
Result: 82.7

Problem: For the compound CCc1cc(Nc2ncc(Br)c(Nc3ccc4c(=O)n(C5CC5)ncc4c3P(C)(C)=O)n2)c(OC)cc1N1CCC(N2CCN(C(=O)[C@@H]3CCN(c4cc(F)c([C@H]5CCC(=O)NC5=O)c(F)c4)C3)CC2)CC1 [Example 526] , what Dmax is on record?
Result: 74.6

====

Biological target: EGFR L858R/T790M/C797S (BaF3-LTC cells) (Homo sapiens, UniProt P00533, C797S/L858R/T790M)
Construct: expressed in transfected cells; host or cells: BaF3
Test: EGFR degradation HTRF assay, BaF3-LTC cells
Format: cell-based
Details: BaF3-LTC cells; EGFR degradation, IC50 (DC50) from curve fit; read-out: DC50(nM) BaF3-LTC
Assay Readout: log10(DC50) (log10 of the value in nM)
Short version: log10 scale, DC50, nM.

Solved cases (2 shown):
- CCOc1cc(N2CCC(N3CCN(CCc4c(F)cc(F)c5c4oc(=O)n5C4CCC(=O)NC4=O)CC3)CC2)c(CC)cc1Nc1ncc(Br)c(Nc2ccc3nc(CC)ccc3c2P(C)(C)=O)n1 (centres unmarked): 1.63
- CCc1cc(Nc2ncc(Br)c(Nc3ccc4c(=O)n(C)ncc4c3P(C)(C)=O)n2)c(OC)cc1N1CCC(N2CCN(C(=O)C3CN(c4cc(F)c(C5CCC(=O)NC5=O)c(F)c4)C3)CC2)CC1 (centres unmarked): 0.75

Problem: For the compound CCOc1cc(N2CCC(N3CCN(C(=O)[C@H]4CN(c5cc(F)c([C@H]6CCC(=O)NC6=O)c(F)c5)CC4(C)C)CC3)CC2)c(CC)cc1Nc1ncc(Br)c(Nc2cc(F)c3nc(CC)ccc3c2P(C)(C)=O)n1 , what log10(DC50) is on record?
Result: 1.49

Problem: For the compound CCOc1cc(N2CCC(N3CCN(CCc4ccc(F)c5c4oc(=O)n5C4CCC(=O)NC4=O)CC3)CC2)c(CC)cc1Nc1ncc(Br)c(Nc2cc(F)c3nc(CC)ccc3c2P(C)(C)=O)n1 (centres unmarked) , what log10(DC50) is on record?
Result: 1.10

Problem: For the compound CCc1ccc2c(P(C)(C)=O)c(Nc3nc(Nc4cc(CC)c(N5CCC(N6CCN(CCCc7ccc8c(c7)oc(=O)n8C7CCC(=O)NC7=O)CC6)CC5)cc4OC)ncc3Br)ccc2n1 (centres unmarked) , what log10(DC50) is on record?
Result: 0.55

====

Target: EGFR L858R/T790M/C797S (BaF3-LTC cells) (Homo sapiens, UniProt P00533, C797S/L858R/T790M)
Construct: expressed in transfected cells; host or cells: BaF3
Experiment: EGFR degradation HTRF assay, BaF3-LTC cells
Assay type: cell-based
Settings: BaF3-LTC cells; maximum percentage of inhibition (degradation); read-out: Dmax (%) BaF3-LTC
Assay Readout: Dmax (%)
Entry rule: numbers only, all in %.

• CCOc1cc(N2CCC(N3CCN(C(=O)[C@@H]4CCN(c5cc(F)c([C@H]6CCC(=O)NC6=O)c(F)c5)C4)CC3)CC2)c(C)cc1Nc1ncc(Br)c(Nc2ccc3c(=O)n(C)ncc3c2P(C)(C)=O)n1 [Example 529] = 91.9

Problem: For the compound CCc1cc(Nc2ncc(Br)c(Nc3ccc4nc(C)ccc4c3P(C)(C)=O)n2)c(OC)cc1N1CCC(N2CCN(C(=O)[C@@H]3CCN(c4cc(F)c([C@H]5CCC(=O)NC5=O)c(F)c4)C3)[C@H](CO)C2)CC1 [Example 675] , what Dmax is on record?
Result: 96.5

Problem: For the compound CCc1ccc2c(P(C)(C)=O)c(Nc3nc(Nc4cc(CC)c(N5CCC(N6CCN(C(=O)[C@@H]7CCN(c8cc(F)c([C@H]9CCC(=O)NC9=O)c(F)c8)C7)CC6)CC5)cc4OC(F)(F)F)ncc3Br)ccc2n1 [Example 649] , what Dmax is on record?
Result: 78.6

Problem: For the compound CCc1ccc2c(P(C)(C)=O)c(Nc3nc(Nc4cc(CC)c(N5CCC(N6CCN(CCCOc7cc(F)c([C@H]8CCC(=O)NC8=O)c(F)c7)CC6)CC5)cc4OC)ncc3Br)ccc2n1 [Example 734] , what Dmax is on record?
Result: 92.2

Problem: For the compound CCc1cc(Nc2ncc(Br)c(Nc3ccc4nc(C)ccc4c3P(C)(C)=O)n2)c(OC)cc1N1CCC(N2CCN(C(=O)C3CCN(c4cc(F)c(C5CCC(=O)NC5=O)c(F)c4)CC3)CC2)CC1 (centres unmarked) [Example 517] , what Dmax is on record?
Result: 91.3

====

Molecular target: EGFR L858R/T790M/C797S (BaF3-LTC cells) (Homo sapiens, UniProt P00533, C797S/L858R/T790M)
Construct: expressed in transfected cells; host or cells: BaF3
Experiment: EGFR degradation HTRF assay, BaF3-LTC cells
Assay type: cell-based
Conditions: BaF3-LTC cells; EGFR degradation, IC50 (DC50) from curve fit; read-out: DC50(nM) BaF3-LTC
Assay Readout: DC50

Solved cases (2 shown):
- CCOc1cc(N2CCC(N3CCN(CCc4cccc5c4n(CC)c(=O)n5C4CCC(=O)NC4=O)CC3)CC2)c(CC)cc1Nc1ncc(Br)c(Nc2ccc3nc(CC)ncc3c2P(C)(C)=O)n1 (stereo not drawn): 3.72 nM
- CCOc1cc(N2CCC(N3CCN(CCc4cccc5c4C(C)(C)C(=O)N5C4CCC(=O)NC4=O)[C@H](CO)C3)CC2)c(CC)cc1Nc1ncc(Br)c(Nc2ccc3c(=O)n(CC)ncc3c2P(C)(C)=O)n1 (stereo partly drawn): 7.79 nM

Let us move to another entry and its DC50.
Problem: Hi! What's the reported DC50 for CCOc1cc(N2CCC(N3CCN(CCc4ccc5c(c4)oc(=O)n5C4CCC(=O)NC4=O)CC3)CC2)c(CC)cc1Nc1ncc(Br)c(Nc2ccc3nc(CC)ccc3c2P(C)(C)=O)n1 (stereo not drawn) on EGFR L858R/T790M/C797S (BaF3-LTC cells) (Homo sapiens, UniProt P00533, C797S/L858R/T790M)?
Result: 3.34 nM
